Taken from PubChem BioAssay (NCI).

Recorded TGI, one value per entry.
Tested on: HCT-116 colon
Assay: NCI tumour cell line growth inhibition, 48 h

# example entries with known answers
molecule	measurement_name	test_result
C=C[C@]1(C)CC(O)C2C(=C)C(=O)OC2[C@H]1C(=C)C=O (stereo not given in full)	TGI	3.26 µM
CN(C)C(=O)Oc1ccc[n+](C)c1	TGI	> 100 µM
Cc1ccc2c(=O)cc(-c3ccc(Cl)cc3)[nH]c2n1	TGI	> 32.1 µM

Incoming: Recorded TGI for `NC12CC3C4CC5(N)CC3C(C1)C(C5)C4C2` , please?
Outgoing: > 100 µM

Incoming: And then `CC(=O)Oc1ccc2c3c1[C@H]1O[C@H]1c1cccc(c1-3)[C@@H]1O[C@H]21` , what is it?
Outgoing: 34.4 µM

Incoming: Also need `N[C@@H]1CCCC[C@@H]1N.O=P([O-])([O-])CNCP(=O)([O-])[O-].[Pt+2]` , thanks.
Outgoing: > 100 µM

Incoming: Now give it for CCN(CC)c1ccc(/C=C/C2=NN(c3cccc(S(=O)(=O)O)c3)C3(C2)SCC(=O)N3c2nc3ccccc3s2)cc1 (stereo not given) too.
Outgoing: > 100 µM

* * *

System: KM20L2 colon
Test: NCI tumour cell line growth inhibition, 48 h
# TGI values compiled below

> print(dat)
                                   compound  test.result
1  COc1cc2c(cc1O)[C@@]1(Cc3ccc(OC)c(OC)c3)CCC(=O)N1CC2     > 100 µM

Incoming: GET /values?readout=TGI&item= O=C1C(C(Nc2ccccc2)c2ccccc2)=C([O-])c2ccccc21.O=C1C(C(Nc2ccccc2)c2ccccc2)=C([O-])c2ccccc21.[Ni+2] (stereo not given)
Outgoing: 77.7 µM

Incoming: Same question, `CC(C)Cn1cnc2c(Sc3c([N+](=O)[O-])ncn3C)nc(N)nc21` this time
Outgoing: > 100 µM

Incoming: Again, but for `CCOC(=O)c1sc2c(sc(=O)n2-c2ccccc2)c1O`
Outgoing: > 100 µM

Incoming: Next up: `CCc1n[nH]c(=S)n1/N=C/c1ccc(-c2ccc([N+](=O)[O-])cc2)o1`
Outgoing: > 100 µM

* * *

Test system: UACC-257 melanoma
Assay: NCI tumour cell line growth inhibition, 48 h
measurement_name: TGI

The cases that follow already have their TGI on record.
compound	experimental_system	test_result
CN(C)C=Nc1ccc2c3c(cccc13)-c1ccccc1-2	UACC-257 melanoma	31.9 µM
c1ccc2[nH]c(C3CCCCO3)nc2c1 (stereo unspecified)	UACC-257 melanoma	> 100 µM

Incoming: Need TGI of CC(=O)O[C@@H]1C(C2CCCCC2)C=[N+]([O-])O[C@@H]1OC1CCCC1(c1ccccc1)c1ccccc1 (stereo partly specified) , thanks.
Outgoing: 36.5 µM

Incoming: Another compound to look at: `COc1ccc(-c2cc(-c3ccccc3)nc(N)c2-c2ccc3ccccc3c2)cc1`
Outgoing: 3.52 µM

Incoming: Now give it for `COc1cc2c(cc1O)[C@@]1(Cc3ccc(OC)c(OC)c3)CCC(=O)N1CC2` too.
Outgoing: > 100 µM

* * *

System: SK-MEL-2 melanoma
Assay: NCI tumour cell line growth inhibition, 48 h
measurement_name: TGI

> print(dat)
                                   molecule  test.result
1  C=C[C@]1(C)CC(O)C2C(=C)C(=O)OC2[C@H]1C(=C)C=O (stereo partly specified)      13.4 µM
2    COc1ccc(-c2ccccc2)c(N/N=C2\CCCNC2=O)c1     > 100 µM
3  COC(=O)C1CC2c3c(c4ccccc4n3C)CC(C1=O)N2C (stereo unspecified)     > 100 µM
4       CCOC(=O)/C=C(\C)Sc1cc(O)c2ccccc2c1O      50.5 µM
5        Cc1ccc(NN=NCCCCN=NNc2ccc(C)cc2)cc1     > 100 µM

Incoming: Given the entry `CC(=O)Oc1ccc2c3c1[C@H]1O[C@H]1c1cccc(c1-3)[C@@H]1O[C@H]21` , what TGI was observed with SK-MEL-2 melanoma?
Outgoing: 39.6 µM

* * *

Tested on: UO-31 renal
Test: NCI tumour cell line growth inhibition, 48 h
measurement_name: TGI

> print(dat)
                                   molecule  test.result
1  S=C(NCCc1ccccn1)c1nc[nH]c1C(=S)NCCc1ccccn1     > 100 µM

Incoming: Using the record for `CN(C)C=Nc1ccc2c3c(cccc13)-c1ccccc1-2` , report its TGI.
Outgoing: 19.6 µM

Incoming: Can you check COC(=O)CCC1(C)C2CCC1/C(=N/O)C2 (stereo unspecified) next?
Outgoing: > 100 µM

Incoming: Another: CC(=O)Oc1cn(-c2ccc(Cl)cc2)nc1C1=NN(C(C)=O)C(c2ccc(F)cc2F)O1 (stereo unspecified)
Outgoing: > 100 µM

Incoming: Same question, CCOC1CCC2C(CCC(/C=C/c3ccc(O)c4ncccc34)N2C)C1 (stereo unspecified) this time
Outgoing: > 100 µM

Incoming: Then what about the molecule CCn1cc(C2NC(=O)c3ccccc3N2)c2cccc(C)c21 (stereo unspecified) ?
Outgoing: 16.4 µM

* * *

Tested on: HS 578T breast
Assay: NCI tumour cell line growth inhibition, 48 h
measurement_name: TGI (µM)
Express your answer in µM, writing the number without its unit.

Consider the worked cases shown below.
compound	TGI (µM)
CC(C)NC(=O)OCc1c(COC(=O)NC(C)C)n(C)c2c1ccc1ccsc12	48.5
COc1ccc(-n2cnc3c(N)nc(N)nc32)cc1	87
CCCCCOc1ccc(Nc2c(O)c3c(c(O)c2Cl)C(=O)C=CC3=O)cc1	7.39
CC1OC(OC2C(O)COC(OC3C(C)OC(OC4C(OC(=O)[C@]56CCC(C)(C)C[C@@H]5C5=CCC7[C@@]8(C)C[C@H](O)[C@H](OC9OC(CO)C(O)C(O)C9O)[C@@](C)(CO)[C@@H]8CC[C@@]7(C)[C@]5(C)CC6)OCC(O)C4O)C(O)C3OC3OCC(O)C(O)C3O)C2O)C(O)C(O)C1O (stereo partly specified)	63.9
Cc1n[nH]c(=O)n1/N=C/c1cccc(Cl)c1	39.7

Now look at this entry.
Incoming: Given `N#C/C(=C\c1ccc2c(c1)OCO2)n1nnc2ccccc21` , state its recorded TGI.
Outgoing: 9.36

* * *

System: COLO 205 colon
Assay: NCI tumour cell line growth inhibition, 48 h
Documented TGI across a set of compounds

compound	TGI
O=C(NCCCCN(CCCNC(=O)C(F)(F)F)Cc1ccccc1)C(F)(F)F	> 100 µM

Incoming: Requested field: TGI. Item: COC(=O)C12C3C4C1C1C2C3C41C(=O)NC(C)(C)CC(=O)O (stereo unspecified)
Outgoing: > 100 µM

Incoming: What about `CC(C)Cn1cnc2c(Sc3c([N+](=O)[O-])ncn3C)nc(N)nc21` ?
Outgoing: > 62.9 µM

Incoming: Now give it for O=C1CC(Cl)c2c1csc2Br (stereo unspecified) too.
Outgoing: 28.5 µM

* * *

Tested on: SK-MEL-5 melanoma
Assay: NCI tumour cell line growth inhibition, 48 h
measurement_name: TGI

Illustrative cases are given below, each with its answer.
compound	test_result
CC1=C(C)C2(C#N)C(=O)N3C(=NC(c4ccccc4)NC3c3ccccc3)C2(C#N)C(c2ccccc2)N1 (stereo not drawn)	> 100 µM
c1ccc2[nH]c(C3CCCCO3)nc2c1 (stereo not drawn)	> 100 µM
N/N=C(\CCN1CCCC1)CC(c1ccccc1)c1c(O)c2ccccc2oc1=O (stereo not drawn)	> 100 µM
Oc1cc2ccccc2cc1-c1n[nH]c(=S)n1CCc1ccccc1	43.6 µM
CCCCCOc1ccc(Nc2c(O)c3c(c(O)c2Cl)C(=O)C=CC3=O)cc1	> 10 µM

Incoming: Give its TGI value. Item: `CN(c1nc(=[N+](C)C)ss1)C1CCCCC1`
Outgoing: > 100 µM

Incoming: Likewise for COCC1OC(OC2OCC3OC4(OCC(O)(C(C)OC)C5OCOC54)OC3C2OC)C(OC)C(O)C1OC1OC(C)C(OC)C(OC2OC(C)C3OC4(CC(O)C(OC5CC(OC6CC(C)([N+](=O)[O-])C(OC)C(C)O6)C(OC(=O)c6c(C)c(Cl)c(O)c(Cl)c6OC)C(C)O5)C(C)O4)OC3(C)C2O)C1O (stereo not drawn) ?
Outgoing: > 100 µM

Incoming: Another compound: `COc1ccc(-c2cc(-c3ccccc3)nc(N)c2-c2ccc3ccccc3c2)cc1`
Outgoing: 3.27 µM

* * *

Tested on: NCI-H23 lung
Test: NCI tumour cell line growth inhibition, 48 h
measurement_name: GI50

// solved cases for GI50 follow
> print(dat)
                                   molecule  test.result
1  CN(C)c1ccc2nc3ccc(=[N+](C)C)c([N+](=O)[O-])c-3sc2c1      1.87 µM
2  C=C1CC[C@@H]2C(C)(C)[C@H](O)CC[C@@]2(C)[C@@H]1COc1ccc2ccc(=O)oc2c1      24.5 µM
3  COc1ccc2c(c1)c(-c1nonc1-c1cn(C)c3ccccc13)cn2C     0.996 µM
4  O=C(c1ccccc1)N(C(=S)NCCc1ccc(Cl)cc1)c1ccc(Cl)cc1        13 µM
5  CN1CCN(CCCOc2ccc3ncnc(Nc4ccc(OCc5cccc(F)c5)c(Cl)c4)c3c2)CC1      1.69 µM
6  O=C(O)c1ccc2nc(-c3ccc(OCCCCCOc4ccc(-c5nc6ccc(C(=O)O)cc6[nH]5)cc4)cc3)[nH]c2c1     > 100 µM
7  COc1cc(/C=C\c2cc(/C=C\c3ccc(O)c(OC)c3)n(C(=O)COc3ccc(Cl)cc3Cl)n2)ccc1O      1.06 µM
8                    Cc1cc2nc(CS)[nH]c2cc1C      28.8 µM

Incoming: Any idea what GI50 was measured for `O=c1cc(-c2ccccc2)oc2cc(OCc3cn(Cc4ccc(F)cc4)nn3)cc(OCc3cn(Cc4ccc(F)cc4)nn3)c12` ?
Outgoing: 3.7 µM

Incoming: Field entry: `COc1ccc2c(c1)C(=Nc1ccc(F)c(F)c1F)c1c-2c(Nc2ccc(F)c(F)c2F)nc2ccccc12`
Outgoing: > 36.1 µM

Incoming: What about `C=C1C(=O)O[C@H]2[C@H]1CC/C(COC(=O)NCc1ccc(Cn3c(=O)sn(CCCC)c3=O)cc1)=C\CC[C@@]1(C)O[C@@H]21` ?
Outgoing: 4.19 µM

Incoming: Next molecule: `Oc1cc2ccccc2cc1-c1n[nH]c(=S)n1CCc1ccccc1`
Outgoing: 16.5 µM

Incoming: Queued: O=C1C(C(Nc2ccccc2)c2ccccc2)=C([O-])c2ccccc21.O=C1C(C(Nc2ccccc2)c2ccccc2)=C([O-])c2ccccc21.[Ni+2] (centres undefined)
Outgoing: 5.23 µM

Incoming: Do the same for `COC(=O)c1ccc2[nH]c(O)c(C(=Nc3ccc(N(C)C(=O)CN4CCN(C)CC4)cc3)c3cccc(OC)c3)c2c1` please
Outgoing: 1.05 µM
